Hey, just so you know, these numbers are from ChEMBL document CHEMBL1148328.

assayedSystem: Falcipain 2 (Plasmodium falciparum)
Sequence (Q9N6S8 whole entry): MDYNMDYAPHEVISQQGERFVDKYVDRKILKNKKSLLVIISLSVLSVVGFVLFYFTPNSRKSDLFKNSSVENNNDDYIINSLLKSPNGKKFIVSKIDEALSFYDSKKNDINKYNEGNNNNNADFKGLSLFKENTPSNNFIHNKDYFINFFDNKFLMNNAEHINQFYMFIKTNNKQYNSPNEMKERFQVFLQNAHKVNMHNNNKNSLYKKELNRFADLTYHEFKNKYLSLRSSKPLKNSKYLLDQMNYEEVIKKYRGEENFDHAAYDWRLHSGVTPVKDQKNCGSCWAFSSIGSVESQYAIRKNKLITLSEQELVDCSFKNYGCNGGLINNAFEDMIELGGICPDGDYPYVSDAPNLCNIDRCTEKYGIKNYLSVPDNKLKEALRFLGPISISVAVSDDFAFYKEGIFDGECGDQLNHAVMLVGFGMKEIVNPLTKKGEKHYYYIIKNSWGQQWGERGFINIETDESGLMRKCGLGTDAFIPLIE
pIC50: −log10 of the molar value.
endpointName: pIC50

Query :: Field request: pIC50 | item: `C/C(=N/N=C(/N)S)c1cccc(/C(C)=N/N=C(/N)S)n1`
Result :: < 4.70

Query :: Field request: pIC50 | item: `CS/C(S)=N/N=C(\C)c1ccccn1`
Result :: < 4.70

Query :: Field request: pIC50 | item: `C/C(=N\N=C(\N)S)c1ccc(Nc2ccccc2)cc1`
Result :: < 4.70

Query :: Field request: pIC50 | item: `C/C(=N\N=C(/S)N1CCN(C)CC1)c1cccc(Br)c1`
Result :: < 4.70

Query :: Field request: pIC50 | item: `C/C(=N\NC(N)=S)c1ccccn1`
Result :: < 4.70

Query :: Field request: pIC50 | item: `C/C(=N\N=C(\N)S)c1ccc(-c2ccccc2)cc1`
Result :: 5.00

###

Form: system (UniProt Q95PM0), quantity (IC50), values below.
Reply with just the number (in nM).

Query :: Field request: IC50 | item: `C/C(=N/N=C(/N)S)c1cccc(/C(C)=N/N=C(/N)S)c1`
Result :: 330

Query :: Field request: IC50 | item: `C/C(=N\N=C(\N)S)c1ccc(-c2ccccc2)cc1`
Result :: 90

Query :: Field request: IC50 | item: `C/C(=N\N=C(\N)S)c1ccc(Oc2ccccc2)cc1`
Result :: 8000

Query :: Field request: IC50 | item: `C/C(=N\N=C(\N)S)c1cccc(Oc2ccccc2)c1`
Result :: 550

###

endpointName: pIC50
pIC50 here: minus log base 10 of the concentration, concentration in moles per litre.

Query :: Record `C/C(=N\N=C(\N)S)c1ccc(Nc2ccccc2)cc1` : what is its pIC50 with Rhodesain (Trypanosoma brucei rhodesiense, UniProt Q95PM0)?
Result :: 4.74

Query :: Record `C/C(=N\N=C(/S)N1CCN(C)CC1)c1cccc(Br)c1` : what is its pIC50 with Rhodesain (Trypanosoma brucei rhodesiense, UniProt Q95PM0)?
Result :: 5.40

Query :: Record `C/C(=N\N=C(\N)S)c1cccc(Nc2ccccc2)c1` : what is its pIC50 with Rhodesain (Trypanosoma brucei rhodesiense, UniProt Q95PM0)?
Result :: 6.10

Query :: Record `C/C(=N\N=C(/S)N1CCCCC1)c1cccc(Br)c1` : what is its pIC50 with Rhodesain (Trypanosoma brucei rhodesiense, UniProt Q95PM0)?
Result :: 5.40

Query :: Record `C/C(=N\N=C(\N)S)c1cccc(-c2ccccc2)c1` : what is its pIC50 with Rhodesain (Trypanosoma brucei rhodesiense, UniProt Q95PM0)?
Result :: 5.96

Query :: Record `CCN(CC)/C(S)=N/N=C(\C)c1cccc(Br)c1` : what is its pIC50 with Rhodesain (Trypanosoma brucei rhodesiense, UniProt Q95PM0)?
Result :: 5.74

Query :: Record `C/C(=N\N=C(\N)S)c1cccc(Br)c1` : what is its pIC50 with Rhodesain (Trypanosoma brucei rhodesiense, UniProt Q95PM0)?
Result :: 7.30

###

pIC50: −log10 of the molar value.
endpointName: pIC50

Query :: Record `C/C(=N\NC(N)=S)c1ccccn1` : what is its pIC50 with UniProt:Q95PM0?
Result :: < 4.70

Query :: Record `CS/C(S)=N/N=C(\C)c1ccccn1` : what is its pIC50 with UniProt:Q95PM0?
Result :: < 4.70

Query :: Record `CS/C(S)=N/N=C(\C)c1cccc(Br)c1` : what is its pIC50 with UniProt:Q95PM0?
Result :: < 4.70
